From: paper PMC6650976

- tgt: the molecule itself
- assay.remarks: cross-linking; apo-proteins: 0.02% glutaric aldehyde, 16 h, 20 °C, protein 1 mg/mL, 20 mM Tricine-KOH pH 7.4, 50 mM KCl, 1 mM DTT, 1 mM EDTA; SDS-PAGE, Coomassie, densitometry; self-association
# Monomer 20 kDa, % annotations
# number only, unit % dropped from output

The cases that follow already have their Monomer 20 kDa, % on record.
human recoverin mutant V122A (natural protein, UniProt P35243 1-200, looked up, myristoylated (fraction of non-myristoylated forms did not exceed 16%), recoverin, human, UniProt P35243, C-terminal 'gray' cluster mutant; Parent construct as m1; source: E. coli, expressed and purified similarly to the rWT protein (phenyl-Sepharose, Toyopearl SuperQ-650M)) MGNSKSGALSKEILEELQLNTKFSEEELCSWYQSFLKDCPTGRITQQQFQSIYAKFFPDTDPKAYAQHVFRSFDSNLDGTLDFKEYVIALHMTTAGKTNQKLEWAFSLYDVDGNGTISKNEALEIVMAIFKMITPEDVKLLPDDENTPEKRAEKIWKYFGKNDDDKLTEKEFIEGTLANKEILRLIQFEPQKVKEKMKNA :: 73
human recoverin mutant K119A (natural protein, UniProt P35243 1-200, looked up, myristoylated (fraction of non-myristoylated forms did not exceed 16%), recoverin, human, UniProt P35243, C-terminal 'gray' cluster mutant; Parent construct as m1; source: E. coli, expressed and purified similarly to the rWT protein (phenyl-Sepharose, Toyopearl SuperQ-650M)) MGNSKSGALSKEILEELQLNTKFSEEELCSWYQSFLKDCPTGRITQQQFQSIYAKFFPDTDPKAYAQHVFRSFDSNLDGTLDFKEYVIALHMTTAGKTNQKLEWAFSLYDVDGNGTISANEVLEIVMAIFKMITPEDVKLLPDDENTPEKRAEKIWKYFGKNDDDKLTEKEFIEGTLANKEILRLIQFEPQKVKEKMKNA :: 63.3
human recoverin mutant Q46A (natural protein, UniProt P35243 1-200, looked up, myristoylated (fraction of non-myristoylated forms did not exceed 16%), recoverin, human, UniProt P35243, N-terminal 'gray' cluster mutant; Parent construct as m1; source: E. coli, expressed and purified similarly to the rWT protein (phenyl-Sepharose, Toyopearl SuperQ-650M)) MGNSKSGALSKEILEELQLNTKFSEEELCSWYQSFLKDCPTGRITAQQFQSIYAKFFPDTDPKAYAQHVFRSFDSNLDGTLDFKEYVIALHMTTAGKTNQKLEWAFSLYDVDGNGTISKNEVLEIVMAIFKMITPEDVKLLPDDENTPEKRAEKIWKYFGKNDDDKLTEKEFIEGTLANKEILRLIQFEPQKVKEKMKNA :: 64.9

Request: Would you mind telling me what Monomer 20 kDa, % value was observed for recombinant wild type human recoverin (natural protein, UniProt P35243 1-200, looked up, myristoyl group at the N terminus (degree of myristoylation exceeded 89%), recoverin, human, UniProt P35243; cDNA from Y79 retinoblastoma cells, amplified with primers from the start codon to the stop codon, subcloned into pET-15b(+) by NcoI and XhoI; also called rWT; rWT recoverin; source: E. coli pET15b rec/pBB131/BL21(DE3)RILLC+, purified (phenyl-Sepharose, Toyopearl SuperQ-650M)) MGNSKSGALSKEILEELQLNTKFSEEELCSWYQSFLKDCPTGRITQQQFQSIYAKFFPDTDPKAYAQHVFRSFDSNLDGTLDFKEYVIALHMTTAGKTNQKLEWAFSLYDVDGNGTISKNEVLEIVMAIFKMITPEDVKLLPDDENTPEKRAEKIWKYFGKNDDDKLTEKEFIEGTLANKEILRLIQFEPQKVKEKMKNA ?
Response: 66.9
